Target: APE1 (Homo sapiens, UniProt P27695)
Construct: made in house
Sequence (P27695 whole entry): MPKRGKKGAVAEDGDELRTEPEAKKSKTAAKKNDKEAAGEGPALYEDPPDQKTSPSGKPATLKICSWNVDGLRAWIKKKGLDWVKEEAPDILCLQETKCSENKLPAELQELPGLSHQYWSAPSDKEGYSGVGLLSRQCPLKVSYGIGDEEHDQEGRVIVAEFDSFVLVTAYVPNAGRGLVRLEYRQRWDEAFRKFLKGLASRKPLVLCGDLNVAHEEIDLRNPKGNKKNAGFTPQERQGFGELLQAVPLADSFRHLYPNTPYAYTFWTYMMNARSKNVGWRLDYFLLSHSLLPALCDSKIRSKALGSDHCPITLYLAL
Test: Gel-based APE1 incision assay with fluorescence (TAMRA) detection
Assay type: biochemical
Conditions: estimated IC50, fluorophore detection; entries 113-223; read-out: F-PAGE Assay IC50
recordedEndpoint: IC50 (µM)
Respond numerically; units are µM and should not be typed.

Nc1c(/C=C2/C=CC(=O)C(O)=C2)c(=O)nc2sc(CC(=O)N3CCCCC3)nn12 | 2.5
Cn1cnnc1SCC(=O)Nc1ncc([N+](=O)[O-])s1 | 5
CCNc1nc(NCC)n2c(SCC(=O)Nc3ccc(OC(F)F)cc3)nnc2n1 | 7.1
CCNc1nc(NCC)n2c(SCC(=O)Nc3cccc(F)c3)nnc2n1 | 5
CC(=O)Oc1cc(C(=O)OCC(=O)N2CCc3ccccc3C2)cc(OC(C)=O)c1OC(C)=O | 4.5

Task item: Consider the molecule shown here: COc1ccc(S(=O)(=O)N2CCN(C(=O)c3cc4c(s3)CCC4)CC2)cc1 What is its recorded IC50?
Reply: 2

Task item: Next up: N#C/C(=C\c1ccc(O)c(O)c1)C(=O)Nc1cccc2ncccc12
Reply: 0.6

Task item: Next up: COc1ccccc1N(CC(=O)NCc1ccco1)S(=O)(=O)c1ccc(C)cc1
Reply: 8.9

Task item: Next up: CCc1cc(CNC(=O)c2ccc(OC3CCN(CCc4ccccc4)CC3)cc2)on1
Reply: 4.5

Task item: Next up: CCOC(=O)C1CCCN(C(=O)c2cc(-c3ccco3)nc3ccccc23)C1 (centres unmarked)
Reply: 4

Task item: Next up: CCOC(=O)c1cc(-c2ccc(/C=C3/C(=O)N(c4ccc(C(=O)O)cc4)N=C3C)o2)ccc1Cl
Reply: 7.9

====

Target: APE1 (Homo sapiens, UniProt P27695)
Construct: made in house
Assay: Gel-based APE1 incision assay with fluorescence (TAMRA) detection
Type: biochemical
Details: estimated IC50, fluorophore detection; entries 113-223; read-out: F-PAGE Assay IC50
As shown below, each of these molecules has a reported pIC50 value.
// field semantics: pIC50 = negative decimal log of concentration (mol/L)

Solved cases below.
CN(CC(=O)Nc1cccc(F)c1)C(=O)c1cccc(-n2cccc2)c1 | 5.30
COC(=O)c1ccn(CC(=O)NC2CCCCC2)n1 | 5.25

Shifting focus to the molecule that follows.
Task item: Recorded pIC50 for O=C(CSc1nnc(Nc2ccccc2F)s1)NC(=O)CN1CCCC1=O with APE1 (Homo sapiens, UniProt P27695), please?
Reply: 5.05
